# test: GSK_TCAKS: pIC50 HepG2 human cell line viability assay using luminiscence. […] Seeding density was checked to ensure that new mono-layers were not more than 50% confluent at the time of harvesting. Cell suspension was added to 500 mL of the same medium at a final density of 1.2 * 10^5 cells/mL. This cell suspension was dispensed (25 uL, 3000 cells per well) into 384-well clear-bottom plates using a Multidrop Combi dispenser. Prior to addition of the cell suspension, the screening compounds (250 nL) were pre-dispensed into the plates with an Echo liquid handler. Plates were incubated for 48 h at 37C, 5% CO2. After incubation, plates equilibrated at room temperature for 30 min before proceeding to develop the luminescent signal. The signal developer, CellTiter-Glo Reagent, was allowed to equilibrate at room temperature for 30 min and added to the plates (25uL per well) using a Multidrop Combi dispenser. Plates were left for 10 min at room temperature for stabilization and then read using a ViewLux.
# Format: toxicity, cell-based
For each of the compounds below, state its IC50 at 48 h.

[[record]]
compound = "O=C(NCCc1n[nH]c(-c2ccc(F)c(F)c2)n1)C1CCCCC1"
measured_result = "> 100 µM"

[[record]]
compound = "N#Cc1nc(C=Cc2ccccc2)oc1NCc1cccnc1"
measured_result = "> 100 µM"

[[record]]
compound = "COc1ccc2ncc(F)c(CCN3CC[C@@H](NC(=O)c4cc5c(s4)CCC5)[C@@H](O)C3)c2n1"
measured_result = "50.1 µM"

[[record]]
compound = "C=CCN(Cc1cccs1)C(=O)CSc1nnc(-c2ccc3c(c2)OCO3)o1"
measured_result = "> 100 µM"

[[record]]
compound = "CC(C)Oc1ccc(C(=O)Nc2ccc(N3CCOCC3)c(Cl)c2)cc1"
measured_result = "31.6 µM"

[[record]]
compound = "Oc1nccc2ccc(-c3ccncc3)cc12"
measured_result = "> 100 µM"

[[record]]
compound = "CN(C)CCOc1ccc(N2CCN(S(=O)(=O)c3ccc(Cl)cc3)CC2)cc1"
measured_result = "50.1 µM"

[[record]]
compound = "O=C(Nc1cccc(S(=O)(=O)Nc2ccc(Br)cc2)c1)c1ccc([N+](=O)[O-])s1"
measured_result = "15.8 µM"

[[record]]
compound = "CN(CCOc1ccc(Cl)cc1)Cc1nc(N)nc(N(C)C)n1"
measured_result = "> 100 µM"

[[record]]
compound = "Cc1c([N+](=O)[O-])c(C(=O)Nc2sc3c(c2C#N)CCC(C)C3)nn1C (stereo unspecified)"
measured_result = "> 100 µM"


IN: May I ask what IC50 at 48 h has been recorded for O=C(Nc1ncc([N+](=O)[O-])s1)C1CC1 ?
OUT: > 100 µM
